The reported numbers originate from patent US6034134A.

study system: NMDA receptor
assay procedure: [3H]-(+)-MK-801 binding to rat cortical membranes
reported conditions: read-out: [3H] MK-801 IC50; Table 7; footnote calls the values Ki
quantity name: pIC50
Give bare numbers, as −log10 of the molar value.

Below are worked cases with known answers.
CC1CC(C)CC(C)(N)C1 (stereo not shown)	4.82
CCC[C@@H]1CC(C)(C)C[C@@](C)(N)C1 (relative stereo)	5.11
CC1(C)CC(C)(C)CC(C)(N)C1	5.72
C[C@@H]1CC(C)(C)C[C@@](C)(N)C1 (relative stereo)	5.09
CCC[C@@]1(C)C[C@H](C)C[C@@](C)(N)C1 (relative stereo)	4.49
CC[C@]1(C)C[C@@H](C)C[C@@](C)(N)C1 (relative stereo)	4.81

Could you report pIC50 for every entry in the following list?
1. CC(C)(N)CC1CC(C)(C)CC(C)(C)C1
2. CCCC1(N)CC(C)(C)CC(C)(C)C1
3. CCC1(N)CC(C)(C)CC(C)(C)C1
4. CC[C@@H]1CCC[C@@](C)(N)C1 (relative stereo)

*A*
4.07
5.13
5.62
4.40
